Listed here are molecules together with their documented HC10.
experiment description: Toxicity in human RBC assessed as hemolysis after 1 hr
Type: cell-based, Erythrocyte
condition label: erythrocyte, 1 h
measure: HC10 (µg/mL)

1) CCCCCCCCCCCCCCCC(=O)N[C@@H](CCCCN)CN(CC(N)=O)C(=O)CCCN = 25
2) CCCCCCCC/C=C\CCCCCCCC(=O)N[C@@H](CCCCN)CN(CC(=O)N[C@@H](CCCCN)CN(CC(N)=O)C(=O)CCCN)C(=O)CCCN = 250
3) CCCCCCCCCCCCCCCC(=O)N[C@@H](C)CN(CC(=O)N[C@@H](C)CN(CC(=O)N[C@@H](CCC(=O)O)CN(CC(=O)N[C@@H](CCC(=O)O)CN(CC(=O)N[C@@H](CCC(=O)O)CN(CC(N)=O)C(=O)CC(=O)O)C(=O)CC(=O)O)C(=O)CC(=O)O)C(C)=O)C(C)=O = 250
4) CCCCCCCCCCCCCCCC(=O)N[C@@H](C)CN(CC(=O)N[C@@H](C)CN(CC(=O)N[C@@H](CC(C)C)CN(CC(=O)N[C@@H](CC(C)C)CN(CC(=O)N[C@@H](CC(C)C)CN(CC(N)=O)C(=O)CCCN)C(=O)CCCN)C(=O)CCCN)C(C)=O)C(C)=O = 60
5) CC(C)C[C@@H](CN(CC(=O)N[C@@H](CCCCN)CN(CC(N)=O)C(=O)CCc1ccccc1)C(=O)CCc1ccccc1)NC(=O)CN(C[C@H](CCCCN)NC(=O)CN(C[C@H](CCCCN)NC(=O)CN(C[C@H](CC(C)C)NC(=O)CN(C[C@H](CCCCN)NC(=O)CN(C[C@@H](N)CCCCN)C(=O)CCc1ccccc1)C(=O)CCc1ccccc1)C(=O)CCc1ccccc1)C(=O)CCc1ccccc1)C(=O)CCc1ccccc1 = 75

Entry source: ChEMBL document CHEMBL2046294
